- tgt: Caspase-1 (Homo sapiens, UniProt P29466)
- Sequence (P29466 120-297 limits assumed): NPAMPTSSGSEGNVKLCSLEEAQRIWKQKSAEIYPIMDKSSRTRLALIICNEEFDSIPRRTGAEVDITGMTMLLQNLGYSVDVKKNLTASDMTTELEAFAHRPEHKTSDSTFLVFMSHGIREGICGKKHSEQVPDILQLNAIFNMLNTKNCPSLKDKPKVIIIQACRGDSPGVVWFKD
- Sequence (P29466 317-404 limits assumed): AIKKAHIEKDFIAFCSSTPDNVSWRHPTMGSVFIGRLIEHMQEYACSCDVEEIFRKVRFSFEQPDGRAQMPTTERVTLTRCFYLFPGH
- protocol-notes: Inhibition of recombinant human caspase-1 expressed in Escherichia coli using Ac-YVAD-AMC as substrate preincubated for 30 mins before substrate addition measured after 2 hrs
Would you mind telling me the reported IC50 of each entry?

Return IC50 (reported value) for this compound: COC[C@@H]1CCCN1S(=O)(=O)c1ccc2c(c1)C(=O)C(=O)N2Cc1ccc(OC)cc1
> 10 µM

Return IC50 (reported value) for this compound: O=C1C(=O)N(Cc2ccc(Br)cc2)c2ccc(S(=O)(=O)N3CCC[C@H]3CF)cc21
> 10 µM

Return IC50 (reported value) for this compound: O=C1C(=O)N(Cc2ccc(OCCF)cc2)c2ccc(S(=O)(=O)N3CC4CNCC4C3)cc21 (stereo unspecified)
> 10 µM

Return IC50 (reported value) for this compound: COC[C@@H]1CCCN1S(=O)(=O)c1ccc2c(c1)C(=O)C(=O)N2Cc1ccc(OCCF)cc1
> 10 µM

Return IC50 (reported value) for this compound: O=C1C(=O)N(Cc2ccc(F)cc2)c2ccc(S(=O)(=O)N3CCC[C@H]3CF)cc21
> 10 µM

Return IC50 (reported value) for this compound: O=C1C(=O)N(Cc2nnnn2Cc2ccccc2)c2ccc(S(=O)(=O)N3CCC[C@H]3CF)cc21
1.88 µM

Return IC50 (reported value) for this compound: O=C1C(=O)N(Cc2cccc([N+](=O)[O-])c2)c2ccc(S(=O)(=O)N3CCC[C@H]3CF)cc21
4.69 µM

Return IC50 (reported value) for this compound: O=C1C(=O)N(Cc2ccc(I)cc2)c2ccc(S(=O)(=O)N3CCC[C@H]3CF)cc21
> 10 µM

Return IC50 (reported value) for this compound: O=C1C(=O)N(Cc2ccccc2[N+](=O)[O-])c2ccc(S(=O)(=O)N3CCC[C@H]3CF)cc21
0.672 µM

Return IC50 (reported value) for this compound: O=C1C(=O)N(Cc2ccccc2)c2ccc(S(=O)(=O)N3CCC[C@H]3CF)cc21
> 10 µM

Return IC50 (reported value) for this compound: O=C1C(=O)N(Cc2ccc(OCCF)cc2)c2ccc(S(=O)(=O)N3CCC[C@H]3CF)cc21
> 10 µM
